Measured kon, listed per entry for reference.
TESTED_TARGET: HTRA1 (construct not given) (Homo sapiens (Human), UniProt Q92743 23-480, limits assumed)
Sequence (Q92743 23-480 limits assumed): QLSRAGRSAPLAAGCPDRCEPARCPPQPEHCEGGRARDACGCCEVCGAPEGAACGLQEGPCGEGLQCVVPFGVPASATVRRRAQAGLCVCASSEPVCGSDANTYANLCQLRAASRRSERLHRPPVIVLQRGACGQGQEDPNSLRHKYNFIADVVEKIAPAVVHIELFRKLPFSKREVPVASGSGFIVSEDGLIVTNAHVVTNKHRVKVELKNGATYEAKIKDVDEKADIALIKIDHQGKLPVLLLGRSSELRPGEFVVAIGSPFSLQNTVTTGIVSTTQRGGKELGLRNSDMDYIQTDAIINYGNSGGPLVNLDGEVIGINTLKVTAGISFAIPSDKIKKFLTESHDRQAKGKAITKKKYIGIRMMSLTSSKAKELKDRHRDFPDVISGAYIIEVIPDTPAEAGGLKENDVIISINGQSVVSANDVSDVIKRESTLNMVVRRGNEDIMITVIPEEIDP
TEST_PROTOCOL: SPR (Biacore)
Lab book: enter the figure in M⁻¹ s⁻¹, no units written.

hz24F7.v2 S92T (antibody, human IgG1, kappa, N297G, V domains shown, hz24F7.v2 with a substitution in light chain CDR3) VH: QVQLVQSGAEVKKPGASVKVSCKASGYTFTDYEMHWVRQAPGQRLEWMGAIDPETGGTAYNQKFKGRVTITADKSASTAYMELSSLRSEDTAVYYCTREGYSYEGGGYYFDYWGQGTLVTVSS VL: DIQMTQSPSSLSASVGDRVTITCSVSSSVSYMYWYQQKPGKAPKLLIYDTSNLASGVPSRFSGSGSGTDFTFTISSLQPEDIATYYCQQWSTYPTFGQGTKLEIKR ... 9.81e+06

Field: next binder
Qu. Return value of kon for input hz24F7.v2 S91T (antibody, human IgG1, kappa, N297G, V domains shown, hz24F7.v2 with a substitution in light chain CDR3) VH: QVQLVQSGAEVKKPGASVKVSCKASGYTFTDYEMHWVRQAPGQRLEWMGAIDPETGGTAYNQKFKGRVTITADKSASTAYMELSSLRSEDTAVYYCTREGYSYEGGGYYFDYWGQGTLVTVSS VL: DIQMTQSPSSLSASVGDRVTITCSVSSSVSYMYWYQQKPGKAPKLLIYDTSNLASGVPSRFSGSGSGTDFTFTISSLQPEDIATYYCQQWTSYPTFGQGTKLEIKR , no commentary.
Ans. 7.1e+06
